Test system: HL-1
Experiment: relative cell viability (CellTiter-Glo) vs DMSO control (% of DMSO control); higher = more viable cells
Settings: oxygen condition: normoxia 72 h; 200 nM
Each item that follows carries a reported relative cell viability.
Enter a number only.

# Compound, System Under Test, relative cell viability
data = [
    ("CC1CCc2cc(F)cc3c(=O)c(C(=O)O)cn1c23 (stereo not given)", "HL-1", 120),
    ("CC(=O)OCC(=O)[C@@]12OC(C)(C)O[C@@H]1C[C@H]1[C@@H]3C[C@H](F)C4=CC(=O)C=C[C@]4(C)[C@@]3(F)[C@@H](O)C[C@@]12C [Fluocinonide]", "HL-1", 88.7),
    ("[I-].[K+] [Potassium iodide]", "HL-1", 104),
    ("CC(C)(C#N)c1cc(Cn2cncn2)cc(C(C)(C)C#N)c1", "HL-1", 93.2),
]

IN: Give relative cell viability for the following compound: CC(=O)NS(=O)(=O)c1ccc(N)cc1 [sulfacetamide sodium]
OUT: 107

----------
System: HL-1
Test: relative cell viability (CellTiter-Glo) vs DMSO control (% of DMSO control); higher = more viable cells
Conditions: oxygen condition: normoxia 72 h; 5000 nM
Readout Name: relative cell viability
Enter a number only.

Study these solved cases before continuing.
# Compound, Readout Name, Value
measured = [
    ("CO[C@H]1C[C@@H]2CC[C@@H](C)[C@@](O)(O2)C(=O)C(=O)N2CCCC[C@H]2C(=O)O[C@H]([C@H](C)C[C@@H]2CC[C@@H](OC(=O)C(C)(CO)CO)[C@H](OC)C2)CC(=O)[C@H](C)/C=C(\\C)[C@@H](O)[C@@H](OC)C(=O)[C@H](C)C[C@H](C)/C=C/C=C/C=C/1C", "relative cell viability", 44),
    ("Cc1ccc(C)c(OCCCC(C)(C)C(=O)O)c1", "relative cell viability", 106),
    ("COc1ccc2[nH]cc(CCNC(C)=O)c2c1", "relative cell viability", 119),
]

IN: Give relative cell viability for the following compound: "N=C(N)NC(=N)N1CCOCC1"
OUT: 114

IN: Give relative cell viability for the following compound: NCCc1c[nH]cn1 [Histamine Phosphate]
OUT: 109

IN: Give relative cell viability for the following compound: COCCCOc1cc(C[C@@H](C[C@H](N)[C@@H](O)C[C@H](C(=O)NCC(C)(C)C(N)=O)C(C)C)C(C)C)ccc1OC [Aliskiren hemifumarate]
OUT: 107

IN: Give relative cell viability for the following compound: O=P(O)(O)C(Cl)(Cl)P(=O)(O)O [Clodronate Disodium]
OUT: 113

----------
System: HL-1
Experiment: relative cell viability (CellTiter-Glo) vs DMSO control (% of DMSO control); higher = more viable cells
Settings: oxygen condition: normoxia 72 h; 200 nM
Decision: relative cell viability beneath 100 gives yes (1); relative cell viability meeting or exceeding 100 gives no (0).

// below: answered compounds
# Compound, Answer Label
rows = [
    ("COc1cc([C@@H]2c3cc4c(cc3[C@@H](O[C@@H]3O[C@@H]5CO[C@@H](c6cccs6)O[C@H]5[C@H](O)[C@H]3O)[C@H]3COC(=O)[C@H]23)OCO4)cc(OC)c1O [Teniposide]", "no (0)"),
    ("CCN(CC)C(=O)/C(C#N)=C/c1cc(O)c(O)c([N+](=O)[O-])c1", "no (0)"),
    ("COc1c2ccoc2cc2oc(=O)ccc12", "yes (1)"),
    ("Nc1nc2[nH]cnc2c(=S)[nH]1", "yes (1)"),
    ("CC(C)(Oc1ccc(Cl)cc1)C(=O)O", "no (0)"),
]

Consider the additional compound presented here.
IN: Find out if reported relative cell viability for CNCC(O)c1ccc(O)c(O)c1 (racemic) is less than 100
OUT: yes (1)

Every entry's value here was drawn from the supplement of paper PMC8371130.
